Hey, just so you know, these numbers are from ChEMBL document CHEMBL1165847.

ASSAY SYSTEM: UniProt:P49684
MEASUREMENT NOTES: Displacement of [125I]U2 from rat urotensin 2 receptor expressed in CHO cells
Assay type: cell-based
Where a SMILES comes first, the peptide text is derived from it. Bridges are numbered along the chain shown (N, C = ends). [ ]: non-standard residue; d: D form. 1Nal = N[C@@H](Cc1cccc2ccccc12)C(=O)O; 2Nal = N[C@@H](Cc1ccc2ccccc2c1)C(=O)O
READOUT TYPE: Ki (nM)

Recorded Ki, per entry:
CC(=O)N[C@H]1CSSC[C@@H](C(N)=O)NC(=O)[C@H](Cc2ccc(O)cc2)NC(=O)[C@H](CCCCN)NC(=O)[C@H](Cc2ccc3ccccc3c2)NC(=O)[C@H](Cc2ccccc2)NC1=O (Ac-CF[2Nal]KYC-NH2; disulfide 1-6)
200
CC(=O)N[C@H]1CSSC[C@@H](C(N)=O)NC(=O)[C@@H](Cc2ccc(O)cc2)NC(=O)[C@H](CCCCN)NC(=O)[C@H](Cc2c[nH]c3ccccc23)NC(=O)[C@H](Cc2ccccc2)NC1=O
1100
CN(C)CCCOc1ccc(CN2CC[C@H](NC(=O)c3ccc(Cl)c(Cl)c3)C2)cc1
3.2

1 = CC(=O)N[C@H]1CSSC[C@@H](C(N)=O)NC(=O)[C@H](Cc2ccc(O)cc2)NC(=O)[C@H](CCCCN)NC(=O)[C@H](Cc2c[nH]c3ccccc23)NC(=O)[C@H](Cc2ccccc2)NC1=O
2 = CC(=O)N[C@H]1CSSC[C@@H](C(N)=O)NC(=O)[C@H](Cc2ccc(O)cc2)NC(=O)[C@H](CCCCN)NC(=O)[C@@H](Cc2c[nH]c3ccccc23)NC(=O)[C@H](Cc2ccccc2)NC1=O
Q: // which entry has the larger Ki value, 1 or 2 ? Selection: enter the item's label.
A: 2
(2: 610 nM, 1: 15 nM)

1 = CC(=O)N[C@H]1CSSC[C@@H](C(N)=O)NC(=O)[C@H](Cc2cccc3ccccc23)NC(=O)[C@H](CCCCN)NC(=O)[C@H](Cc2c[nH]c3ccccc23)NC(=O)[C@H](Cc2ccccc2)NC1=O (Ac-CFWK[1Nal]C-NH2; disulfide 1-6)
2 = CC(=O)N[C@H]1CSSC[C@@H](C(N)=O)NC(=O)[C@H](Cc2ccccc2)NC(=O)[C@H](CCCCN)NC(=O)[C@H](Cc2c[nH]c3ccccc23)NC(=O)[C@H](Cc2ccccc2)NC1=O (Ac-CFWKFC-NH2; disulfide 1-6)
Q: // which entry has the larger Ki value, 1 or 2 ? Selection: enter the item's label.
A: 2
(2: 17 nM, 1: 4.1 nM)

###

ASSAY SYSTEM: Urotensin-2 receptor (Rattus norvegicus)
MEASUREMENT NOTES: Agonist activity at rat urotensin 2 receptor expressed in CHO cells assessed as calcium mobilization by FLIPR
Type: functional, cell-based
pEC50: −log10 of the molar value.
READOUT TYPE: pEC50

Q: Tell me its pEC50 given Ac-SFWKYS-NH2 as the entry.
A: > 6.30

###

ASSAY SYSTEM: Urotensin-2 receptor (Rattus norvegicus, UniProt P49684)
Sequence (P49684 whole entry): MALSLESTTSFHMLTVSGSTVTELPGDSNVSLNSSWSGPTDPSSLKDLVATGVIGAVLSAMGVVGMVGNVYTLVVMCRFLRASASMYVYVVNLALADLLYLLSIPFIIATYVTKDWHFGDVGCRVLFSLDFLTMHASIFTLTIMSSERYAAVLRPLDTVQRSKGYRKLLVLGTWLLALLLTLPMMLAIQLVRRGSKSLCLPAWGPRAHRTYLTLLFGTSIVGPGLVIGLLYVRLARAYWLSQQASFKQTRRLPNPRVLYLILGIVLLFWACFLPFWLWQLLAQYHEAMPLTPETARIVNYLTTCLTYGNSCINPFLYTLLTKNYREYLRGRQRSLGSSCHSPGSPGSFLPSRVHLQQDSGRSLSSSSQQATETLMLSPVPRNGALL
MEASUREMENT NOTES: Agonist activity at rat urotensin 2 receptor expressed in CHO cells assessed as calcium mobilization by FLIPR
Assay type: functional, cell-based
Where a SMILES comes first, the peptide text is derived from it. Bridges are numbered along the chain shown (N, C = ends). [ ]: non-standard residue; d: D form. 1Nal = N[C@@H](Cc1cccc2ccccc12)C(=O)O
READOUT TYPE: EC50 (nM)

CC(C)[C@H](NC(=O)[C@@H]1CSSC[C@H](NC(=O)[C@@H](N)CC(=O)O)C(=O)N[C@@H](Cc2ccccc2)C(=O)N[C@@H](Cc2c[nH]c3ccccc23)C(=O)N[C@@H](CCCCN)C(=O)N[C@@H](Cc2ccc(O)cc2)C(=O)N1)C(=O)O (H-DCFWKYCV-OH; disulfide 2-7)
0.1
CC(=O)N[C@H]1CSSC[C@@H](C(N)=O)NC(=O)[C@H](Cc2cccc3ccccc23)NC(=O)[C@H](CCCCN)NC(=O)[C@H](Cc2c[nH]c3ccccc23)NC(=O)[C@H](Cc2ccccc2)NC1=O (Ac-CFWK[1Nal]C-NH2; disulfide 1-6)
1.5
CC(=O)N[C@H]1CSSC[C@@H](C(N)=O)NC(=O)[C@H](Cc2ccccc2)NC(=O)[C@H](CCCCN)NC(=O)[C@H](Cc2c[nH]c3ccccc23)NC(=O)[C@H](Cc2ccccc2)NC1=O (Ac-CFWKFC-NH2; disulfide 1-6)
2.1

###

ASSAY SYSTEM: Urotensin-2 receptor (Mus musculus)
Sequence (Q8VIH9 whole entry): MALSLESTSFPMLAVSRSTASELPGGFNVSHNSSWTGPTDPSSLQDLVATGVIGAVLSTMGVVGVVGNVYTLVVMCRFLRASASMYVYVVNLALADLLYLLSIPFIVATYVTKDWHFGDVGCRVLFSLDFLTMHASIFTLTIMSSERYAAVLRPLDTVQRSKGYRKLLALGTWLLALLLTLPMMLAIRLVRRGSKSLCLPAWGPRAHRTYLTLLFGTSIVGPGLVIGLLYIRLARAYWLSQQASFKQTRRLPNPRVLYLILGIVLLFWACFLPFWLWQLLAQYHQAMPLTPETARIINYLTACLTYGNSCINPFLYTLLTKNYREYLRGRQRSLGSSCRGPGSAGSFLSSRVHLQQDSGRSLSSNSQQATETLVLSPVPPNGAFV
pKi: −log10 of the molar value. Structures can show the parent of a compound that is named as a salt.
READOUT TYPE: pKi

Q: Write down the reported pKi (system: Urotensin-2 receptor (Mus musculus)) of Cc1cc(NC(=O)NCCN2CCC(O)(Cc3ccccc3)CC2)c2ccccc2n1 [PALOSURAN SULFATE]
A: < 6.00

###

ASSAY SYSTEM: UniProt:P49684
MEASUREMENT NOTES: Displacement of [125I]U2 from rat urotensin 2 receptor expressed in CHO cells
Assay type: cell-based
Where a SMILES comes first, the peptide text is derived from it. Bridges are numbered along the chain shown (N, C = ends). [ ]: non-standard residue; d: D form. 2Nal = N[C@@H](Cc1ccc2ccccc2c1)C(=O)O
READOUT TYPE: Ki (nM)
Use nM as the unit, but write only the number.

CC(C)[C@H](NC(=O)[C@@H]1CSSC[C@H](NC(=O)[C@H](CC(=O)O)NC(=O)[C@H](C)NC(=O)[C@@H](NC(=O)CNC(=O)[C@H](C)N)[C@@H](C)O)C(=O)N[C@@H](Cc2ccccc2)C(=O)N[C@@H](Cc2c[nH]c3ccccc23)C(=O)N[C@@H](CCCCN)C(=O)N[C@@H](Cc2ccc(O)cc2)C(=O)N1)C(=O)O (H-AGTADCFWKYCV-OH; disulfide 6-11)
0.19

Q: Tell me its Ki given CC(C)[C@H](NC(=O)[C@@H]1CSSC[C@H](NC(=O)[C@H](CC(=O)O)NC(=O)[C@H](C)NC(=O)[C@@H](NC(=O)CNC(=O)[C@H](C)N)[C@@H](C)O)C(=O)N[C@@H](Cc2ccccc2)C(=O)N[C@@H](Cc2c[nH]c3ccccc23)C(=O)N[C@@H](CCCCN)C(=O)N[C@@H](Cc2ccc3ccccc3c2)C(=O)N1)C(=O)O (H-AGTADCFWK[2Nal]CV-OH; disulfide 6-11) as the entry.
A: 0.02
